These entries and their values trace back to ChEMBL document CHEMBL3632492.

Reported inhibition by item:
Target: DNA topoisomerase 2-alpha (Homo sapiens)
Assay: Inhibition of recombinant human topoisomerase 2alpha assessed as relaxation of supercoiled plasmid DNA pBR322 at 100 uM incubated for 30 mins by agarose gel electrophoresis
assay_endpoint: inhibition (%)

>  <structure_string>
CCN(CC)c1ccc2nc(-c3ccccc3OC(F)(F)F)[nH]c(=O)c2c1

>  <measurement_target>
DNA topoisomerase 2-alpha (Homo sapiens)

>  <readout_number>
0

$$$$
>  <structure_string>
Cc1ccc2nc(-c3ccccc3N(C)C)[nH]c(=O)c2c1

>  <measurement_target>
DNA topoisomerase 2-alpha (Homo sapiens)

>  <readout_number>
7.2

$$$$
>  <structure_string>
Cc1ccc2c(=O)[nH]c(-c3cccc(OC(F)(F)F)c3)nc2c1

>  <measurement_target>
DNA topoisomerase 2-alpha (Homo sapiens)

>  <readout_number>
0

$$$$
>  <structure_string>
O=c1[nH]c(-c2cccc3ccccc23)nc2ccc(N3CCOCC3)cc12

>  <measurement_target>
DNA topoisomerase 2-alpha (Homo sapiens)

>  <readout_number>
46.4

$$$$
>  <structure_string>
Cc1ccc2c(=O)[nH]c(-c3cccc(C(F)(F)F)c3)nc2c1

>  <measurement_target>
DNA topoisomerase 2-alpha (Homo sapiens)

>  <readout_number>
0

$$$$
>  <structure_string>
Cc1ccc2nc(-c3ccccc3OC(F)(F)F)[nH]c(=O)c2c1

>  <measurement_target>
DNA topoisomerase 2-alpha (Homo sapiens)

>  <readout_number>
5.47

$$$$
>  <structure_string>
O=c1[nH]c(-c2cccc3ccccc23)nc2ccc(N3CCCCC3)cc12

>  <measurement_target>
DNA topoisomerase 2-alpha (Homo sapiens)

>  <readout_number>
0

$$$$
>  <structure_string>
CCN(CC)c1ccc2nc(-c3ccccc3C(F)(F)F)[nH]c(=O)c2c1

>  <measurement_target>
DNA topoisomerase 2-alpha (Homo sapiens)

>  <readout_number>
9.4

$$$$
>  <structure_string>
CCN(CC)c1ccc2nc(-c3ccccc3N(C)C)[nH]c(=O)c2c1

>  <measurement_target>
DNA topoisomerase 2-alpha (Homo sapiens)

>  <readout_number>
0

$$$$
>  <structure_string>
Cc1cccc(-c2nc3cc(C)ccc3c(=O)[nH]2)c1

>  <measurement_target>
DNA topoisomerase 2-alpha (Homo sapiens)

>  <readout_number>
40.4

$$$$
>  <structure_string>
Cc1ccc2nc(-c3cccc(OC(F)(F)F)c3)[nH]c(=O)c2c1

>  <measurement_target>
DNA topoisomerase 2-alpha (Homo sapiens)

>  <readout_number>
0

$$$$
>  <structure_string>
Cc1ccc2c(=O)[nH]c(-c3ccccc3F)nc2c1

>  <measurement_target>
DNA topoisomerase 2-alpha (Homo sapiens)

>  <readout_number>
0

$$$$
>  <structure_string>
Cc1ccc2nc(-c3ccccc3C(F)(F)F)[nH]c(=O)c2c1

>  <measurement_target>
DNA topoisomerase 2-alpha (Homo sapiens)

>  <readout_number>
7.2

$$$$
>  <structure_string>
Cc1ccc2nc(-c3ccccc3F)[nH]c(=O)c2c1

>  <measurement_target>
DNA topoisomerase 2-alpha (Homo sapiens)

>  <readout_number>
0

$$$$
>  <structure_string>
Cc1ccc2c(=O)[nH]c(-c3ccccc3OC(F)(F)F)nc2c1

>  <measurement_target>
DNA topoisomerase 2-alpha (Homo sapiens)

>  <readout_number>
0

$$$$
>  <structure_string>
COc1cccc(-c2nc3ccc(N4CCCCC4)cc3c(=O)[nH]2)c1OC

>  <measurement_target>
DNA topoisomerase 2-alpha (Homo sapiens)

>  <readout_number>
0

$$$$
>  <structure_string>
Cc1cccc(-c2nc3ccc(C)cc3c(=O)[nH]2)c1

>  <measurement_target>
DNA topoisomerase 2-alpha (Homo sapiens)

>  <readout_number>
4.6

$$$$
>  <structure_string>
Cc1ccc2nc(-c3cccc4ccccc34)[nH]c(=O)c2c1

>  <measurement_target>
DNA topoisomerase 2-alpha (Homo sapiens)

>  <readout_number>
5.5

$$$$
>  <structure_string>
Cc1ccc2nc(-c3ccccc3C)[nH]c(=O)c2c1

>  <measurement_target>
DNA topoisomerase 2-alpha (Homo sapiens)

>  <readout_number>
0

$$$$
>  <structure_string>
CCN(CC)c1ccc2nc(-c3cccc4ccccc34)[nH]c(=O)c2c1

>  <measurement_target>
DNA topoisomerase 2-alpha (Homo sapiens)

>  <readout_number>
0

$$$$
>  <structure_string>
COc1cccc(-c2nc3ccc(C)cc3c(=O)[nH]2)c1

>  <measurement_target>
DNA topoisomerase 2-alpha (Homo sapiens)

>  <readout_number>
65.2

$$$$
>  <structure_string>
Cc1ccc2nc(-c3cccc(C(F)(F)F)c3)[nH]c(=O)c2c1

>  <measurement_target>
DNA topoisomerase 2-alpha (Homo sapiens)

>  <readout_number>
11.2

$$$$
>  <structure_string>
COc1cccc(-c2nc3cc(C)ccc3c(=O)[nH]2)c1

>  <measurement_target>
DNA topoisomerase 2-alpha (Homo sapiens)

>  <readout_number>
43.6

$$$$

* * *

Molecular target: DNA topoisomerase 2-alpha (Homo sapiens)
Experiment: Potency index, ratio of compound activity to etoposide activity for inhibition of recombinant human topoisomerase 2alpha at 100 uM
// reported Ratio for each item listed

>  <structure_string>
Cc1cccc(-c2nc3ccc(C)cc3c(=O)[nH]2)c1

>  <measurement_target>
DNA topoisomerase 2-alpha (Homo sapiens)

>  <Ratio>
0.05

$$$$
>  <structure_string>
COc1cccc(-c2nc3cc(C)ccc3c(=O)[nH]2)c1

>  <measurement_target>
DNA topoisomerase 2-alpha (Homo sapiens)

>  <Ratio>
0.54

$$$$
>  <structure_string>
O=c1[nH]c(-c2cccc3ccccc23)nc2ccc(N3CCOCC3)cc12

>  <measurement_target>
DNA topoisomerase 2-alpha (Homo sapiens)

>  <Ratio>
0.58

$$$$
>  <structure_string>
Cc1ccc2nc(-c3ccccc3C(F)(F)F)[nH]c(=O)c2c1

>  <measurement_target>
DNA topoisomerase 2-alpha (Homo sapiens)

>  <Ratio>
0.09

$$$$
>  <structure_string>
Cc1ccc2c(=O)[nH]c(-c3ccccc3N(C)C)nc2c1

>  <measurement_target>
DNA topoisomerase 2-alpha (Homo sapiens)

>  <Ratio>
0.35

$$$$
>  <structure_string>
Cc1ccc2c(=O)[nH]c(-c3cccc(F)c3)nc2c1

>  <measurement_target>
DNA topoisomerase 2-alpha (Homo sapiens)

>  <Ratio>
0.12

$$$$
>  <structure_string>
COc1cccc(-c2nc3ccc(C)cc3c(=O)[nH]2)c1

>  <measurement_target>
DNA topoisomerase 2-alpha (Homo sapiens)

>  <Ratio>
0.81

$$$$
>  <structure_string>
Cc1cccc(-c2nc3cc(C)ccc3c(=O)[nH]2)c1

>  <measurement_target>
DNA topoisomerase 2-alpha (Homo sapiens)

>  <Ratio>
0.5

$$$$
>  <structure_string>
Cc1ccc2c(=O)[nH]c(-c3ccccc3C)nc2c1

>  <measurement_target>
DNA topoisomerase 2-alpha (Homo sapiens)

>  <Ratio>
0.77

$$$$
>  <structure_string>
Cc1ccc2nc(-c3ccccc3OC(F)(F)F)[nH]c(=O)c2c1

>  <measurement_target>
DNA topoisomerase 2-alpha (Homo sapiens)

>  <Ratio>
0.06

$$$$
>  <structure_string>
Cc1ccc2nc(-c3cccc(C(F)(F)F)c3)[nH]c(=O)c2c1

>  <measurement_target>
DNA topoisomerase 2-alpha (Homo sapiens)

>  <Ratio>
0.14

$$$$

* * *

Target: DNA topoisomerase 2-alpha (Homo sapiens) (UniProt P11388)
Sequence (P11388 whole entry): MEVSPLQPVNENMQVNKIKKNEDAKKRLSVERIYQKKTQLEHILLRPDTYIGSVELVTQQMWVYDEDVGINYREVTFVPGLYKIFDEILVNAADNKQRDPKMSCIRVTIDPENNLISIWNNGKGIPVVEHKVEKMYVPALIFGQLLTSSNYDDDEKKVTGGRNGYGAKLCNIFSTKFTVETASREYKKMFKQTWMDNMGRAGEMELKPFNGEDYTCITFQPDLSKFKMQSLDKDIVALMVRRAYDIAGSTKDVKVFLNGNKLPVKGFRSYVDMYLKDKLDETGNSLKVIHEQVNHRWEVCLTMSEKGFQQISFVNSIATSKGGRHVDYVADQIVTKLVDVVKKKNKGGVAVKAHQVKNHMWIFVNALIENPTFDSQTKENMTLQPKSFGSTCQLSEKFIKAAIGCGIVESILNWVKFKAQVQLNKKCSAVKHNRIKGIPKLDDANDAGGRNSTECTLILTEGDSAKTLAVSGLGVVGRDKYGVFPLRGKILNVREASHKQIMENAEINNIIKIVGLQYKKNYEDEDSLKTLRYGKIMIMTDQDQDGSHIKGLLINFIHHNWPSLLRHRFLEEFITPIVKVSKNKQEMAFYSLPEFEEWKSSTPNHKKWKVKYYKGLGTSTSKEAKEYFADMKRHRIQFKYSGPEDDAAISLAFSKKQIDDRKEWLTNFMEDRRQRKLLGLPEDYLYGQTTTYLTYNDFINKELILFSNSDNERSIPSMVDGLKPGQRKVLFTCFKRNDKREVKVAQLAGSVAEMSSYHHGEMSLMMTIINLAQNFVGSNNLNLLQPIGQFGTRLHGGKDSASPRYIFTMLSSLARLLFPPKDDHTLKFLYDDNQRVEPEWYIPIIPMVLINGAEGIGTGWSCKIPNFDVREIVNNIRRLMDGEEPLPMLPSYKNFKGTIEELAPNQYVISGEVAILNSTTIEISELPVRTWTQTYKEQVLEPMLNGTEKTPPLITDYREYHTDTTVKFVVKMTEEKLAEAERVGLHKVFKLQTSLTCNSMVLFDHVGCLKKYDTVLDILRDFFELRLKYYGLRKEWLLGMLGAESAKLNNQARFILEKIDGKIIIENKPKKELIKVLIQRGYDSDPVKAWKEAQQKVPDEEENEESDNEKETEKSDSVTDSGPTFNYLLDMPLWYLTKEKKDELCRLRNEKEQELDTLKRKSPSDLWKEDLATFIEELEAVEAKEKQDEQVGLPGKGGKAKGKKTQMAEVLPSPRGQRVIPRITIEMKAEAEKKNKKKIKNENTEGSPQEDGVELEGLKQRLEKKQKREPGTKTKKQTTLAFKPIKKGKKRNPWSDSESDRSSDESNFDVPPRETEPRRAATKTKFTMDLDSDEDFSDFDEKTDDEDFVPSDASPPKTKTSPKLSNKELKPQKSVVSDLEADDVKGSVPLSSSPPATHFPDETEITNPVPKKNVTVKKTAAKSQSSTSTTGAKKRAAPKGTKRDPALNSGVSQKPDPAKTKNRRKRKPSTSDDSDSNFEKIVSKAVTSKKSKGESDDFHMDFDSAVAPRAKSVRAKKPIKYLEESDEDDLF
Assay: Potency index, ratio of compound activity to etoposide activity for inhibition of recombinant human topoisomerase 2alpha at 100 uM
Listed compounds paired with reported Ratio

>  <structure_string>
CCN(CC)c1ccc2nc(-c3ccccc3C(F)(F)F)[nH]c(=O)c2c1

>  <Ratio>
0.11

$$$$
>  <structure_string>
Cc1ccc2nc(-c3ccccc3N(C)C)[nH]c(=O)c2c1

>  <Ratio>
0.09

$$$$
>  <structure_string>
Cc1ccc2nc(-c3cccc4ccccc34)[nH]c(=O)c2c1

>  <Ratio>
0.06

$$$$

* * *

System: HeLa
Test: Cytotoxicity against human HeLa cells measured after 2 days by MTT assay
Type: functional, cell-based
Conditions: 48 h
pIC50: −log10 of the molar value.

>  <compound>
COc1cccc(-c2nc3ccc(C)cc3c(=O)[nH]2)c1

>  <measurement_target>
HeLa

>  <qualifier_sign>
<

>  <pIC50>
4.30

$$$$
>  <compound>
Cc1ccc2c(=O)[nH]c(-c3cccc4ccccc34)nc2c1

>  <measurement_target>
HeLa

>  <qualifier_sign>
<

>  <pIC50>
4.30

$$$$
>  <compound>
Cc1ccc2nc(-c3ccccc3F)[nH]c(=O)c2c1

>  <measurement_target>
HeLa

>  <qualifier_sign>
<

>  <pIC50>
4.30

$$$$
>  <compound>
Cc1ccc2nc(-c3cccc4ccccc34)[nH]c(=O)c2c1

>  <measurement_target>
HeLa

>  <qualifier_sign>
=

>  <pIC50>
5.27

$$$$
>  <compound>
CCN(CC)c1ccc2nc(-c3ccccc3OC(F)(F)F)[nH]c(=O)c2c1

>  <measurement_target>
HeLa

>  <qualifier_sign>
=

>  <pIC50>
7.40

$$$$
>  <compound>
Cc1ccc2c(=O)[nH]c(-c3ccccc3OC(F)(F)F)nc2c1

>  <measurement_target>
HeLa

>  <qualifier_sign>
=

>  <pIC50>
4.74

$$$$
>  <compound>
CCN(CC)c1ccc2nc(-c3ccccc3N(C)C)[nH]c(=O)c2c1

>  <measurement_target>
HeLa

>  <qualifier_sign>
=

>  <pIC50>
7.15

$$$$
>  <compound>
Cc1ccc2c(=O)[nH]c(-c3ccccc3F)nc2c1

>  <measurement_target>
HeLa

>  <qualifier_sign>
=

>  <pIC50>
6.08

$$$$
>  <compound>
Cc1ccc2nc(-c3cccc(OC(F)(F)F)c3)[nH]c(=O)c2c1

>  <measurement_target>
HeLa

>  <qualifier_sign>
<

>  <pIC50>
4.30

$$$$
>  <compound>
COc1cccc2c1C(=O)c1c(O)c3c(c(O)c1C2=O)C[C@@](O)(C(=O)CO)C[C@@H]3O[C@H]1C[C@H](N)[C@H](O)[C@H](C)O1 [DOXORUBICIN]

>  <measurement_target>
HeLa

>  <qualifier_sign>
=

>  <pIC50>
6.28

$$$$
>  <compound>
CN(C)c1ccc2nc(-c3cccc4ccccc34)[nH]c(=O)c2c1

>  <measurement_target>
HeLa

>  <qualifier_sign>
=

>  <pIC50>
7.30

$$$$
>  <compound>
Cc1ccc2nc(-c3ccccc3C)[nH]c(=O)c2c1

>  <measurement_target>
HeLa

>  <qualifier_sign>
=

>  <pIC50>
5.34

$$$$
